read-out: Human Leukocyte Antigen - DR isotype (HLADR), HLA-DRA (gene 3122); assay: BSK_BE3C_HLADR: BioMAP Diversity Plus: BE3C Assay for Human Leukocyte Antigen - DR isotype (HLADR) Biomarker Activity (AID 2283032); details: primary human bronchial epithelial cells; actives raise or lower the signal
Active and inactive are the calls of the source. Rule for the calls: active = hit-call score of the fitted dose curve at least 0.9, where 1 is the maximum; inactive = score below 0.9.
measuredProperty: AC50

Field: example entries. Status: answers known.
[Q] Param item = CC(C)CCO ; retrieve measured AC50.
[A] inactive

[Q] Param item = CC(C)=CCC/C(C)=C/CO ; retrieve measured AC50.
[A] inactive

[Q] Param item = CN(C)c1ccc(N=NS(=O)(=O)O)cc1 ; retrieve measured AC50.
[A] inactive

[Q] Param item = O=C1CCCCCN1 ; retrieve measured AC50.
[A] inactive

[Q] Param item = CC1(C)C(=O)N(Br)C(=O)N1Br ; retrieve measured AC50.
[A] inactive

Alright, here's another compound for you.
[Q] Param item = O=C(CCCCCCCCc1cccnc1)N1CCC(C=C(c2ccccc2)c2ccccc2)CC1 ; retrieve measured AC50.
[A] 17.6 µM (active)

* * *

experiment: APR_HepG2_P-H2AX_24hr: Apredica 24-hour HepG2 Assay for H2AX Phosphorylation (AID 2282920); details: high-content imaging, actives raise or lower the signal
Active and inactive are the calls of the source. Rule for the calls: active = hit-call score of the fitted dose curve at least 0.9, where 1 is the maximum; inactive = score below 0.9.
Reply using exactly one outcome from active, inactive

[Q] Any idea what this test logged for CCOCCO ?
[A] inactive

[Q] Any idea what this test logged for C[C@](N)(Cc1ccc(O)c(O)c1)C(=O)O ?
[A] inactive

[Q] Any idea what this test logged for CCCC(=O)OCC ?
[A] inactive

[Q] Any idea what this test logged for CCCCCCCCCCCCCCCO ?
[A] inactive

[Q] Any idea what this test logged for CC[C@H]1OC(=O)[C@H](C)[C@@H](O[C@H]2C[C@@](C)(OC)[C@@H](O)[C@H](C)O2)[C@H](C)[C@@H](O[C@@H]2O[C@H](C)C[C@H](N(C)C)[C@H]2O)[C@](C)(O)C[C@@H](C)C(=O)[C@H](C)[C@@H](O)[C@]1(C)O ?
[A] inactive

[Q] Any idea what this test logged for CC(=O)OCCC(C)C ?
[A] inactive

[Q] Any idea what this test logged for O=C1CCCCCN1 ?
[A] inactive

[Q] Any idea what this test logged for COC(=O)CC(=O)OC ?
[A] inactive

[Q] Any idea what this test logged for Cn1cnc([N+](=O)[O-])c1Sc1ncnc2nc[nH]c12 ?
[A] inactive

[Q] Any idea what this test logged for CC(C)=CCCC(C)CCO (configuration not stated) ?
[A] inactive

[Q] Any idea what this test logged for CCc1cc(SCc2sc(-c3ccc(C(F)(F)F)cc3)nc2CN2CCN(c3ccc(OC)cc3)CC2)ccc1OCC(=O)O ?
[A] active

[Q] Any idea what this test logged for COc1ccc(-n2nc(C(F)F)cc2-c2ccc(S(C)=O)cc2)cc1 (configuration not stated) ?
[A] inactive

* * *

Target: X-box-binding protein 1 (Homo sapiens)
Experiment: ATG_Xbp1_CIS: Attagene CIS-FACTORIAL HepG2 Assay for human X-box Binding Protein 1 (XBP1) (AID 2282972)
Settings: HepG2 XBP1 cis-element reporter, Attagene multiplex; actives raise or lower the signal
Method: ATG_CIS is a cell-based, multiplexed-readout assay that uses HepG2, a human liver cell line, with measurements taken at 24 hours after chemical dosing in a 24-well plate.ATG_Xbp1_CIS is one of 52 assay component(s) measured or calculated from the ATG_CIS assay. […] This assay endpoint, ATG_Xbp1_CIS, was analyzed with bidirectional fitting relative to DMSO as the negative control and baseline of activity. […]
Activity calls are given as the source filed them. Rule for the calls: active = hit-call score of the fitted dose curve at least 0.9, where 1 is the maximum; inactive = score below 0.9.
Reply using exactly one outcome from active, inactive

[Q] Any idea what this test logged for Nc1ccc(Nc2ccccc2)cc1 ?
[A] inactive

[Q] Any idea what this test logged for CCCCC(CC)COC(=O)c1ccc(C(=O)OCC(CC)CCCC)cc1 (centres undefined) ?
[A] inactive

[Q] Any idea what this test logged for CCOC(=O)c1ccc(C2CCC(NC[C@H](O)COc3ccc(O)c(NS(C)(=O)=O)c3)CC2)cc1 (some centres undefined) ?
[A] active

[Q] Any idea what this test logged for O=C(CCCCCCCCc1cccnc1)N1CCC(C=C(c2ccccc2)c2ccccc2)CC1 ?
[A] active

[Q] Any idea what this test logged for CC(O)CN(CCN(CC(C)O)CC(C)O)CC(C)O (centres undefined) ?
[A] inactive

[Q] Any idea what this test logged for O=C(O)c1cccc(Oc2ccccc2)c1 ?
[A] inactive

[Q] Any idea what this test logged for CC(C)(O)c1coc(S(=O)(=O)NC(=O)Nc2c3c(cc4c2CCC4)CCC3)c1 ?
[A] inactive

[Q] Any idea what this test logged for C=CCCCCCCCCC(=O)O ?
[A] inactive

[Q] Any idea what this test logged for C[C@](N)(Cc1ccc(O)c(O)c1)C(=O)O ?
[A] inactive

[Q] Any idea what this test logged for CC/C(=C\C(=N/O)C(N)=O)C(C)[N+](=O)[O-] (centres undefined) ?
[A] inactive

[Q] Any idea what this test logged for CCOCCOCCOCCO ?
[A] inactive

[Q] Any idea what this test logged for CNS(=O)(=O)c1cc(C(=O)N2CCC(CCN3C4CCC3CC(n3c(C)nc5ccccc53)C4)(c3cccc(F)c3)CC2)c(Cl)cc1F (centres undefined) ?
[A] inactive

[Q] Any idea what this test logged for CCn1nc(Cc2ccccc2)cc1C1CCN(C[C@H]2C[C@H](N(C)[C@@H](C(=O)O)C(C)C)C[C@@H]2c2cccc(F)c2)CC1 ?
[A] inactive

[Q] Any idea what this test logged for O=C(NS(=O)(=O)/C=C/c1ccccc1)c1ccc(F)cc1Cl ?
[A] inactive

[Q] Any idea what this test logged for C=CC(=C)CCC=C(C)C ?
[A] inactive

[Q] Any idea what this test logged for Fc1ccccc1[C@@H](F)COC1CCC(Nc2ncnc3[nH]ncc23)CC1 (some centres undefined) ?
[A] inactive

[Q] Any idea what this test logged for CCCC(=O)OCC ?
[A] inactive

[Q] Any idea what this test logged for O=C(O)c1cc(N=Nc2ccc(S(=O)(=O)Nc3ccccn3)cc2)ccc1O ?
[A] inactive

[Q] Any idea what this test logged for CCN(C(=O)c1cc(C)cc(OC[C@H](C)Nc2ccncc2)c1)C(C)C ?
[A] inactive

[Q] Any idea what this test logged for O=P(OC(CCl)CCl)(OC(CCl)CCl)OC(CCl)CCl ?
[A] active

[Q] Any idea what this test logged for CC1=CC(=O)CC(C)(C)C1 ?
[A] inactive

[Q] Any idea what this test logged for COc1ccc(/C=C/S(=O)(=O)NC(=O)c2ccc(C)cc2Cl)cc1 ?
[A] inactive

[Q] Any idea what this test logged for COC(=O)c1ccccc1O ?
[A] inactive

[Q] Any idea what this test logged for O=C(O)c1cccc(N(Cc2cccnc2)c2ccc(OC(F)F)c(OC(F)F)c2)c1 ?
[A] inactive
